# experimental_system: HLA-A*0201 (human)
# assay_details: competition with radiolabeled probe peptide for purified soluble HLA-A*0201
# test_parameters: remark: other sources report otherwise
Assignment: determine reported pIC50 for the given binders.
One number for each entry, as −log10 of the molar value.

>>> value("DLMGYIPLV (modifications not checked)")
7.08

// for each binder in input: emit pIC50
1. YIPLVGAPL (modifications not checked)
2. NLPGCSFSI (modifications not checked)
3. FLLALLSCL (modifications not checked)

Found:
6.47
7.08
6.87
